Where these numbers come from: paper PMC4598832

- system: Olfr73 S113A-E208A-Y260F (Mus musculus, UniProt Q920P2, E208A/S113A/Y260F)
- Construct: Rho (rhodopsin) tag; Myc; expressed in transfected cells; host or cells: Hana 3A cells
- protocol-details: cAMP reporter gene (SEAP) assay, Olfr73 triple mutant in Hana3A cells
- Assay type: cell-based
- condition-info: dash in Table 1 = no measurable response, read-out: EC50 Olfr73 S113A-E208A-Y260F
The entries below come with measured EC50 values attached.
metric-name: EC50

CC(C)=CC1CC(C)CCO1 (stereo not drawn) [Rose Oxide, rose oxide] :: > 100 µM
CCOc1cc(C=O)ccc1O :: > 100 µM
COC(=O)c1ccc(O)c(OC)c1 [Methyl vanillate, methyl vanillate] :: > 100 µM

* * *

- system: Olfr73 E208A (Mus musculus, UniProt Q920P2, E208A)
- Construct: Rho (rhodopsin) tag; Myc; expressed in transfected cells; host or cells: Hana 3A cells
- protocol-details: cAMP reporter gene (SEAP) assay, Olfr73 E208A in Hana3A cells
- Assay type: cell-based
- condition-info: EC50 Olfr73 (E208A), Supplementary Table 1, rounded values derived from Fig. 2 and Supplementary Fig. 4; unit inferred
pEC50: −log10 of the molar value.
metric-name: pEC50

CCC=CCC1=C(C)CCC1=O [Jasmone] :: 4.15

* * *

- system: Olfr73 (mOR-EG) wt (Mus musculus)
- Construct: Rho (rhodopsin) tag; Myc; Flag; expressed in transfected cells; host or cells: Hana 3A cells
- Sequence (Q920P2 1-313): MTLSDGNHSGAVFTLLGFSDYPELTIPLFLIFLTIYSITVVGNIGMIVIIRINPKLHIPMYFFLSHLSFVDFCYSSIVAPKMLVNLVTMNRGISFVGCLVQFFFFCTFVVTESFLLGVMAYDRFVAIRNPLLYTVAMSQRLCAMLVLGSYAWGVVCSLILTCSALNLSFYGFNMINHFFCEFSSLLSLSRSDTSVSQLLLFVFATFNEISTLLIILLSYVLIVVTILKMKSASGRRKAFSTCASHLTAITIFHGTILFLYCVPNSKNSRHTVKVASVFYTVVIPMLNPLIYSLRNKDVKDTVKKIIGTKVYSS
- protocol-details: cAMP reporter gene (SEAP) assay, Olfr73 wild type in Hana3A cells
- Type: cell-based
- condition-info: Hana3A cells, SEAP reporter; dash in Table 1 = no measurable response; read-out: EC50 Olfr73 wt
The molecules listed here are annotated with their EC50.
metric-name: EC50 (µM)

C/C=C/c1ccc(OC)c(OC)c1 :: 131
CC(C)=CC1CC(C)CCO1 (centres unmarked) [Rose Oxide, rose oxide] :: 35

* * *

- system: Olfr73 S113A-E208A-Y260F (Mus musculus, UniProt Q920P2, E208A/S113A/Y260F)
- Construct: Rho (rhodopsin) tag; Myc; expressed in transfected cells; host or cells: Hana 3A cells
- protocol-details: cAMP reporter gene (SEAP) assay, Olfr73 triple mutant in Hana3A cells
- Type: cell-based
- condition-info: EC50 Olfr73 S113A-E208A-Y260F, dash in Table 1 = no measurable response
metric-name: EC50 (µM)

CCC=CCC1=C(C)CCC1=O [Jasmone] :: 83

* * *

molecules and their reported EC50
- system: Olfr74 (mOR-EV) wt (Mus musculus, UniProt Q920P1)
- Sequence (Q920P1 1-318): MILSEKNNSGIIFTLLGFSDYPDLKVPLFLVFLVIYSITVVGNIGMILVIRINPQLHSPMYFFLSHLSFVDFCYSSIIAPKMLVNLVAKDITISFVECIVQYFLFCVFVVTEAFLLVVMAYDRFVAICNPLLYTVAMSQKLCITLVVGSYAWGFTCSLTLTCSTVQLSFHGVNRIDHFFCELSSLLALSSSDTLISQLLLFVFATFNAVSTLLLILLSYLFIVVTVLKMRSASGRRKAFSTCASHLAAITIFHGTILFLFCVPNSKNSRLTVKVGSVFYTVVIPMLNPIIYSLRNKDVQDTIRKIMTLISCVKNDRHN
- protocol-details: cAMP reporter gene (SEAP) assay, Olfr74 wild type in Hana3A cells
- Type: cell-based
- condition-info: rounded values derived from Fig. 2 and Supplementary Fig. 4; unit inferred; read-out: EC50 Olfr74 (WT), Supplementary Table 1
metric-name: EC50 (µM)

CCC=CCC1=C(C)CCC1=O :: 30
C=C(C)[C@@H]1CCC2=CC(=O)C[C@@H](C)[C@]2(C)C1 :: 90
